// melting point lookup, one value per entry

# annotated cases, reported melting point shown
{"columns": ["Molecule", "melting point"],
 "data": [
  ["Cc1ccc2c(c1)c(C)c(C(=O)OCc1ccccc1)n2CCC#N", "71 °C"],
  ["O=C(CCCCCN1CCN(c2cccc3c2OCCCO3)CC1)N1Cc2ccccc2C1", "131 °C"],
  ["CCOC(=O)c1c(CN2CCCC2)nc2cc(OC)c(OC)cc2c1-c1ccc(OC)c(OC)c1", "139 to 140 °C"],
  ["CC(c1cc(C(C)(C)C)c(O)c(C(C)(C)C)c1)N(O)C(N)=O (stereo not given)", "162 to 164 °C"],
  ["OCCON=Cc1ccncc1", "78 to 80 °C"]
]}

Query string: Tell us which melting point value is on record for `COC(=O)c1cc2nnn(-c3ccccc3)c2nc1OCc1ncnn1C`
Result string: 188 to 190 °C

Query string: Tell us which melting point value is on record for CN(c1cccc2cc(C3=NCC(CCO)S3)[nH]c12)S(=O)(=O)c1cccs1 (stereo not given)
Result string: 168 to 169 °C

Query string: Tell us which melting point value is on record for `CC(C)(C)OC(=O)N1CCC(c2nc3cc(-c4ccc(-n5cnnn5)cc4F)ccc3o2)CC1`
Result string: 203 to 207 °C

Query string: Tell us which melting point value is on record for `COC(=O)c1sccc1Nc1ccc(Cl)cc1[N+](=O)[O-]`
Result string: 207 to 208 °C

Query string: Tell us which melting point value is on record for CCCCCCCCCCCCCCCCCCNC(=O)OCC(CNS(=O)(=O)CCCI)NC(=O)NC (stereo not given)
Result string: 87 to 89 °C

====

// melting point lookup, one value per entry

# annotated cases, reported melting point shown
{"columns": ["Molecule", "melting point"],
 "data": [
  ["Cn1c(=O)oc2cc([N+](=O)[O-])ccc21", "183 to 185 °C"],
  ["N=C(N)NC(=O)c1cn(-c2nccc3ccccc23)c2ncccc12", "250 °C"],
  ["COc1ccc(C2=NN(Cc3ccncc3)C(=O)[C@H]3CCCC[C@@H]23)cc1OC (relative stereo)", "87 to 89 °C"],
  ["COc1ncc(C=C2SC(=S)N(CC(=O)O)C2=O)cc1-c1cc2c(cc1C)C(C)(C)CCC2(C)C", "253 to 255 °C"],
  ["O=C(CC1=C(n2nc(-c3c(-c4ccccc4)nn4ccccc34)ccc2=O)CCCC1)N1CCN(C(c2ccccc2)(c2ccccc2)c2ccccc2)CC1", "250 °C"]
]}

Query string: Tell us which melting point value is on record for CCCc1cc(N2CCC(NCC(O)c3ccnc4ccccc34)CC2)nc2sc(C(N)=O)c(N)c12 (stereo not drawn)
Result string: 170 to 172 °C

Query string: Tell us which melting point value is on record for `Cc1ccc(C(=O)CC(=O)OC(C)(C)C)c(O)c1`
Result string: 88 to 90 °C

Query string: Tell us which melting point value is on record for `O=C(Cc1ccccc1)c1c(O)c2cccnc2n(-c2ccccc2)c1=O`
Result string: 169 to 170 °C

====

// melting point lookup, one value per entry

{"columns": ["Compound", "Reported Result"],
 "data": [
  ["Cc1cc(C)cc(-c2cc(O)c(SCCc3ccccc3)c(=O)o2)c1", "155 to 157 °C"],
  ["COc1ccc2c(c1)c(OC(C)C)c(C(=O)Nc1ccccc1O)n2-c1ccccc1", "168 to 170 °C"],
  ["O=S1(=O)NCN(CCF)c2cc(F)ccc21", "107 to 109 °C"],
  ["c1ccc2c(c1)CCc1ccccc1C21CO1", "79 to 80 °C"],
  ["CSc1ccc(C(=O)C#CCO)cc1", "73 to 74 °C"]
]}

Query string: Tell us which melting point value is on record for CCCOc1ccc(S(=O)(=O)N2CCN(CC)C(C(=O)OCC)C2)cc1-c1nc2cc3nc[nH]c3cc2c(=O)[nH]1 (stereo not given)
Result string: 158 to 163 °C

Query string: Tell us which melting point value is on record for `CSc1nc(NCCCn2ccnc2)c(C#N)c(N2CCc3ccccc3CC2)n1`
Result string: 131 to 134 °C

Query string: Tell us which melting point value is on record for `CCOC(=O)N1CC=C(c2cc(F)c(Br)cc2F)CC1`
Result string: 40 to 44 °C

Query string: Tell us which melting point value is on record for `CC(C)(C)c1ccc(O)c(C=O)c1`
Result string: 81 °C

Query string: Tell us which melting point value is on record for CCCCC(Cc1cccnc1)(C(=O)OC(C)(C)C)S(=O)(=O)c1ccc(OC)cc1 (stereo not given)
Result string: 10 °C
